Tested on: HOP-62 NSCLC
Assay: NCI-60 one-dose screen, 48 h
Conditions: 10 µM unless noted
This is part of a sample that, as a whole, favours compounds with a hit. Of some 83,000 tested, about 20% had one in any assay. Active and inactive are the calls of the source. How the source made its calls: active means growth percent below 10; inactive means the rest.
Labels: true (active), false (inactive)

In [3]: df
Out[3]:
                                   compound  assigned_category
0  CCOC(=O)N1CCc2c(sc3nc4nc[nH]n4c(=O)c23)C1              false
1  CN(C)C(=O)c1cc2cnc(Nc3ccc(-c4csc5c(=O)cc(N6CCOCC6)oc45)cc3)nc2n1C1CCCC1               true
2   OC(c1ccccc1)c1ccccn1 (stereo not given)              false
3  C/C(=C(/c1ccccc1)c1ccc(OCC(O)CNCCN2CCOCC2)cc1)c1ccccc1 (stereo not given)              false
4  c1ccc(Cn2nc3c(c2-c2ccccc2)-c2oncc2CC3)cc1              false

----------
growth listing for selected compounds.
Tested on: DU-145 prostate
Experiment: NCI-60 one-dose screen, 48 h (100 = growth as untreated, 0 = no growth, -100 = all killed)
Settings: 10 µM unless noted
Compounds without any hit were thinned out: in the full panel of roughly 83,000, 20% have a hit.
property.name: growth (%)

In [3]: df
Out[3]:
                                   compound  property_name  recorded_measurement
0  O=C1/C(=C/c2ccc(O)cc2)COc2ccc(-c3ccccc3)cc21         growth                  59.7
1  CCCCCCNC(=O)Oc1ccc(/C(=C(/CC)Cc2ccccc2)c2ccc(OCCN(CC)CC)cc2)cc1         growth                  80.8
2  C=C(C)[C@H]1CC/C(C)=C/CC[C@]2(C)O[C@H]2CC/C(COC(=O)[C@@H](OC(C)=O)[C@H](NC(=O)c2ccccc2)c2ccccc2)=C\[C@@H]1O         growth                   102
3  CCC1(CC)NC(=O)c2c(c3ccc(Cl)c(Cl)c3n2C)C1C#N (stereo unspecified)         growth                   123
4  Nc1ccccc1NC(=O)c1ccc(CN2CCC/C(=C\c3cccc(Cl)c3)C2=O)cc1         growth                  8.37
5  CNC(=O)NCC1OC(n2cnc3c(NC(=O)Nc4ccccc4)ncnc32)C(O[Si](C)(C)C(C)(C)C)C1O[Si](C)(C)C(C)(C)C (stereo unspecified)         growth                  52.2

----------
Test system: OVCAR-5 ovarian
Experiment: NCI-60 one-dose screen, 48 h (100 = growth as untreated, 0 = no growth, -100 = all killed)
Details: 10 µM unless noted
This is part of a sample that, as a whole, favours compounds with a hit. Of some 83,000 tested, about 20% had one in any assay.
Criterion: growth strictly less than 60%. Met: fulfilled. Not met: not fulfilled.

>>> df
                                    molecule  assigned_category
 0  COc1ccc(/C=N/NC(=O)c2cccc3cc[nH]c23)cc1O      not fulfilled
 1          O=C(Nc1ccccc1)Oc1ccccc1-c1ccccc1      not fulfilled
 2  OC(c1ccccc1)c1ccccn1 (stereo unspecified)      not fulfilled
 3  O=C(Nc1nc2ccc(S(=O)(=O)Nc3ccc(C4(C(F)(F)F)CC4)cc3)cc2[nH]1)c1cnccn1          fulfilled
 4   COc1cnccc1-c1nc2ccc3[nH]ncc3c2c2c1CCCC2      not fulfilled
 5        Cc1cc2cc3cc(C)c(N)cc3[n+](C)c2cc1N          fulfilled
 6  Cc1ccc(C2CC(c3cccc(Nc4ccncc4)c3)=NN2c2ccc(Cl)cc2)cc1 (stereo unspecified)          fulfilled
 7  Cc1c2c(cc[n+]1Cc1ccccc1)c1ccc(OCC3CCCCC3)cc1n2CC1CCCCC1          fulfilled
 8     COc1cc(NCCCN(CC(C)C)CC(C)C)c2ncccc2c1      not fulfilled
 9  CC(C)Cc1ccc(C(C)C(=O)NCc2c[nH]c3ccc(Cl)cc23)cc1 (stereo unspecified)      not fulfilled
10       CCN(CC)CCSCCCNc1c(C)cnc2cc(Cl)ccc12      not fulfilled

----------
Tested on: BT-549 breast
Test: NCI-60 one-dose screen, 48 h (100 = growth as untreated, 0 = no growth, -100 = all killed)
Settings: 10 µM unless noted
The panel holds about 83,000 compounds, 20% with a hit somewhere; the sample as a whole holds those more often.
property.name: growth (%)

>>> print(df.to_string())
                                smiles_data  recorded_measurement
0  O=C1Nc2c(ccc(Cl)c2Cl)/C1=C/c1ccc([N+](=O)[O-])cc1                  87.4
1  CC(=O)c1c(-c2ccc(OC(F)(F)F)cc2)nc2ccccn12                  91.3
2  CC1(C)CN(c2cnc(C(=O)Nc3cc(F)cc4cccnc34)cn2)CCN1                  90.2

----------
Tested on: A549/ATCC NSCLC
Assay: NCI-60 one-dose screen, 48 h (100 = growth as untreated, 0 = no growth, -100 = all killed)
Details: 10 µM unless noted
Compounds without any hit were thinned out: in the full panel of roughly 83,000, 20% have a hit. Calls of active or inactive are those of the source. The calls were made as follows: active = growth percent below 10; inactive = the rest.
property.name: growth

>>> df
                                    compound  property_name  recorded_measurement
 0           Cn1ncc2c(Nc3ccccc3Cl)nc(Cl)nc21         growth       103% (inactive)
 1  COc1ccc(-c2nc(SCCC(C)C)nc(N/N=C(/C)c3ccc(C)cc3)c2C#N)cc1         growth      99.3% (inactive)
 2              Cn1/c(=N/NC(N)=S)ccc2ccccc21         growth      97.7% (inactive)
 3  COc1ccc(C(=O)c2cc3c(N)c(C(=O)Nc4cccc(Cl)c4)sc3nc2C)cc1         growth      32.3% (inactive)
 4  COc1cc2nc(-c3ccc(C#N)cc3)[nH]c(=O)c2cc1OC         growth      15.5% (inactive)
 5  O=S(=O)(NCCNc1nccc(-c2c(-c3cccc(F)c3)nc3occn23)n1)c1cccc2ccccc12         growth      44.1% (inactive)
 6  COC(=O)Nc1nc2ccc(C(=O)c3cccc(I)c3)cc2[nH]1         growth      15.3% (inactive)
 7  Fc1ccc(C2CC(c3cccc(Nc4ccncc4)c3)=NN2c2ccc(Cl)cc2)cc1 (stereo unspecified)         growth      52.6% (inactive)
 8  CCC(C)C(N)C(=O)NNc1n[nH]c(=S)n1N (stereo unspecified)         growth       102% (inactive)
 9    Cn1c2c(Cl)c(Cl)ccc2c2cc(N)[nH]c(=O)c21         growth      15.1% (inactive)
10  O=C1NC(=O)C(=Cc2cn(Cc3ccccn3)c3ccccc23)C(=O)N1         growth      76.3% (inactive)
11  O=S(=O)(NCCCNc1nccc(-c2c(-c3ccc(F)c(O)c3)nc3sccn23)n1)c1ccc(F)cc1         growth      10.2% (inactive)
12  O=C(N/N=C/c1ccc(O)c(O)c1)c1sc2ccccc2c1Cl         growth      96.3% (inactive)
13  CC(=O)N1c2ccccc2NC2=C(C(=O)N(C)C2(C)C)C1C (stereo unspecified)         growth      80.3% (inactive)
14  CCCCCCNC(=O)Oc1ccc(/C(=C(/CC)Cc2ccccc2)c2ccc(OCCN(CC)CC)cc2)cc1         growth      56.2% (inactive)
15       CC(=O)Nc1ccc(S(=O)(=O)NC2CCCCC2)cc1         growth      93.3% (inactive)

----------
System: CCRF-CEM leukemia
Test: NCI-60 one-dose screen, 48 h (100 = growth as untreated, 0 = no growth, -100 = all killed)
Settings: 10 µM unless noted
Description: Growth inhibition of the CCRF-CEM human tumor cell line is measured as a screen for anti-cancer activity. Cells are grown in 96 well plates and exposed to the test compound for 48 hours. Compounds are tested at a single concentration, which is 10^-5 M for most compounds. The reported endpoint is percent growth (GI% or GIPRCNT), where numbers from 0 - 100% represent growth inhibition, and numbers from -100% - 0 represent cell death. For example, a value of 40 represents 60% growth inhibition. […]
About 83,000 compounds went through this panel and 20% of them were active in at least one assay; those are over-represented in the sample as a whole. Active and inactive are the calls of the source. Rule for the calls: active = growth percent below 10; inactive = the rest.
growth listing for selected compounds.
property.name: growth

compound	property.name	recorded.measurement
O=C1NC(=S)NC(=O)C1=Cc1cn(Cc2ccccn2)c2ccccc12	growth	31.3% (inactive)
CC(=O)OCC(=O)[C@@]1(O)CC[C@H]2[C@@H]3CC(=C(Br)Br)C4=CC(=O)CC[C@]4(C)[C@H]3C(=O)C[C@@]21C	growth	83.3% (inactive)
COc1ccc(-c2nn(Cc3ccccc3)c3c2-c2oncc2CC3)cc1OC	growth	98.3% (inactive)
O=S(=O)(c1ccc(N/N=C\c2ccccc2)cc1)c1ccc(N/N=C/c2ccccc2)cc1	growth	88.7% (inactive)
FC(F)(F)c1cccc(Nc2ccccc2)c1	growth	109% (inactive)
O=C(c1ccccc1)N1N=C(c2ccc(-n3ccc(C(F)(F)F)n3)cc2)CC1c1ccc[nH]1 (centres undefined)	growth	85.6% (inactive)
Cc1cc(NC(=O)c2cnc(N3CCN(CCOCCOCCOCCOCCC(=O)N[C@H](C(=O)N4C[C@H](O)C[C@H]4C(=O)N[C@@H](C)c4ccc(-c5scnc5C)cc4)C(C)(C)C)CC3)cn2)c2ncccc2c1	growth	-1.88% (active)
FC(F)(F)Oc1cccc(-c2cc(NCCCCCCNc3cc(-c4cccc(OC(F)(F)F)c4)nc4ccc(N5CCCC5)cc34)c3cc(N4CCCC4)ccc3n2)c1	growth	-32.1% (active)
CN1CCN(C(=O)OCc2nc3c(N4CCOCC4)nc(-c4ccccc4)nc3n2C)CC1	growth	-6.94% (active)

Data provenance is PubChem BioAssay (NCI).
